Reference source for all entries: paper PMC7343282

Entries and their measured Vd at 7 d follow.
Assay: Tissue-blood distribution coefficients and volume of distribution
Conditions: whole blood, pH 7.5, Estimated volume of distribution Vd, residues in muscle, liver and blood only; Mean

| SMILES TEXT | Vd at 7 d / L/kg |
| --- | --- |
| CCCCCCCCCN | 0.91 |
| CCCCCCCCCCCCN | 1.29 |
| CCCCCCCCCCCCCCCCN | 1.13 |

* * *

Test: Tissue-blood distribution coefficients and volume of distribution
Settings: whole blood, pH 7.5, Estimated volume of distribution Vd, residues in muscle, liver and blood only; exposed fish #5

| SMILES TEXT | Vd at 7 d / L/kg |
| --- | --- |
| CCCCCCCCCCCCCCCCN | 1.15 |
| CCCCCCCCCCCCN | 1.56 |
| CCCCCCCCCCCCCN | 1.54 |
| CCCCCCCCCN | 0.83 |

* * *

Test: Tissue concentrations in rainbow trout after 7 d exposure via water (two mixtures)
Format: in vivo, Oncorhynchus mykiss
Conditions: rainbow trout (Oncorhynchus mykiss), in vivo, pH 7.5, Concentration in gills
READOUT: concentration at 7 d (ng/g)

| SMILES TEXT | UNIT INFO | VALUE REPORTED |
| --- | --- | --- |
| CCCCCCCCCCCCN | ng/g | 18500 |
| CCCCCCCCCCCCCN | ng/g | 16000 |
| CCCCCCCCCN | ng/g | 1040 |
| CCCCCCCCCCCCCCCCN | ng/g | 7960 |

* * *

Test system: rainbow trout (Oncorhynchus mykiss)
Experiment: Tissue concentrations in rainbow trout after 7 d exposure via water (two mixtures)
Format: in vivo
Conditions: rainbow trout (Oncorhynchus mykiss), in vivo, 7 d, pH 7.5
Entries and their measured Concentration in muscle follow.
READOUT: Concentration in muscle

| SMILES TEXT | READOUT | VALUE REPORTED |
| --- | --- | --- |
| CCCCCCCCCCCCN | Concentration in muscle | 630 (28) ng g^–1 |
| CCCCCCCCCN | Concentration in muscle | 27 (39) ng g^–1 |
| CCCCCCCCCCCCCCCCN | Concentration in muscle | 111 (22) ng g^–1 |
| CCCCCCCCCCCCCN | Concentration in muscle | 530 (16) ng g^–1 |

* * *

Entries and their measured Vd at 7 d follow.
Test: Tissue-blood distribution coefficients and volume of distribution
Settings: whole blood, pH 7.5, Estimated volume of distribution Vd, residues in muscle, liver and blood only; exposed fish #1
READOUT: Vd at 7 d (L/kg)

| COMPOUND | VALUE REPORTED |
| --- | --- |
| CCCCCCCCCN [P9, Nonylamine] | 0.59 |
| CCCCCCCCCCCCCCCCN [P16, hexadecylamine] | 0.99 |
| CCCCCCCCCCCCCN [P13, tridecylamine] | 1.59 |
| CCCCCCCCCCCCN [P12, Dodecylamine] | 1.13 |

* * *

System: rainbow trout (Oncorhynchus mykiss)
Assay: Contribution of tissues to fish body burden
Assay type: in vivo
Conditions: fraction, Fish #4
Entries and their measured Contribution of Mucus to the fish's body burden follow.
READOUT: Contribution of Mucus to the fish's body burden

| SMILES TEXT | VALUE REPORTED |
| --- | --- |
| CCCCCCCCCCCCCN(C)C | 0.07 |
| CCCCCCCCCN | 0.28 |
| CCCCCCCCCN(C)C | 0.14 |
| CCCCCCCCCCCCCCCCN | 0.04 |
| CCCCCCCCCCCCCN | 0.11 |
| CCCCCCCCCCCCN | 0.14 |
